// provenance: patent US20210395344A1

# Measurement target: S1-Fc (SARS-CoV-2, UniProt P0DTC2 16-685)
# Test description: phage ELISA

Binder	specificity ELISA, fold over background / fold over background
SARS-CoV-2 variant 1-38 (antibody, V domains shown) VH: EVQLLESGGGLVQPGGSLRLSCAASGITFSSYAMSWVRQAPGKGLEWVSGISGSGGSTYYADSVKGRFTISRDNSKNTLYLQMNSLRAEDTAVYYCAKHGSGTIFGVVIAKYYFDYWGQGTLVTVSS VL: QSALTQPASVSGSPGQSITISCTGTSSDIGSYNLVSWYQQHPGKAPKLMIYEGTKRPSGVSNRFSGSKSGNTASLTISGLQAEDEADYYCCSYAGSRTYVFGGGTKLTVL	0.9
SARS-CoV-2 variant 1-37 (antibody, V domains shown) VH: EVQLLESGGGLVQPGGSLRLSCAASGFTFTSYAMNWVRQAPGKGLEWVTAISGSGGSTFYADSVKGRFTISRDNSKNTLYLQMNSLRAEDTAVYYCTRPPYGDYGDYWGQGTLVTVSS VL: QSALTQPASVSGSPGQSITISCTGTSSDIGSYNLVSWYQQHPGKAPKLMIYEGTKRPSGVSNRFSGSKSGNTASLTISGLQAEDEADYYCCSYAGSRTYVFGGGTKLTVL	5.4
SARS-CoV-2 variant 1-26 (antibody, V domains shown) VH: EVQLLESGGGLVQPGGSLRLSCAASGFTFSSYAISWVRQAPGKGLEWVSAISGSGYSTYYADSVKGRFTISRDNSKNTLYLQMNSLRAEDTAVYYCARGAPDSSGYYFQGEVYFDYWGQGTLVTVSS VL: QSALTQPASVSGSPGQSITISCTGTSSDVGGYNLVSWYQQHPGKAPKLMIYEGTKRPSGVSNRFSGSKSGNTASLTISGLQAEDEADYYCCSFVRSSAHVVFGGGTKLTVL	1.3
